Listing: OD at 405 nm of selected binders
- EXPERIMENTAL_TARGET: T1, Full length recombinant HBcAg (rHBcAg) encompassing residues 1-183 (hepatitis B virus, UniProt P03146 1-183)
- T1 construct: range 1-183; also called hepatitis B virus core antigen
- T1 sequence (P03146 whole entry, the tested form may be a part): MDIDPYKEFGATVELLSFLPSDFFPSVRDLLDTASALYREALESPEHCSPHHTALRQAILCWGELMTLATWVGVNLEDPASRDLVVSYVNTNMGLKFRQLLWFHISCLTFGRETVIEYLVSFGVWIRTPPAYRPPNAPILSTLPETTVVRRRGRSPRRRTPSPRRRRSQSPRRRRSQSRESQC
- TEST_DESCRIPTION: EIA, support-bound peptide, HBcAg 0.2 ug/well
MEASURE: OD at 405 nm (OD)

[
  {
    "BINDER": "DYYRRYFDLWGQGTTVTVS (also called Peptide # 11) [DYYRRYFDLWGQGTTVTVS (SEQ. ID. No. 14)]",
    "MEASURED_NUMBER": 0.133
  },
  {
    "BINDER": "IQLQQSGAELVKPGASVKIS (also called Peptide # 24) [IQLQQSGAELVKPGASVKIS (SEQ. ID. No. 27)]",
    "MEASURED_NUMBER": 0.123
  },
  {
    "BINDER": "TGFAYWGQGTLVTVSAAKTT (also called Peptide # 34) [TGFAYWGQGTLVTVSAAKTT (SEQ. ID. No. 37)]",
    "MEASURED_NUMBER": 0.192
  },
  {
    "BINDER": "CKASGYSFTGYNMNWVKQSH (also called Peptide # 26) [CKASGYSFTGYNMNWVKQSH (SEQ. ID. No. 29)]",
    "MEASURED_NUMBER": 0.356
  },
  {
    "BINDER": "VDKSSSTAYMQLNSLTSEDS (also called Peptide # 31) [VDKSSSTAYMQLNSLTSEDS (SEQ. ID. No. 34)]",
    "MEASURED_NUMBER": 0.114
  },
  {
    "BINDER": "EKFKGRATLSVDKSSSTAYM (also called Peptide # 7) [EKFKGRATLSVDKSSSTAYM (SEQ. ID. No. 10)]",
    "MEASURED_NUMBER": 0.194
  },
  {
    "BINDER": "AVYYCARGKGTGFAYWGQGT (also called Peptide # 33) [AVYYCARGKGTGFAYWGQGT (SEQ. ID. No. 36)]",
    "MEASURED_NUMBER": 0.227
  },
  {
    "BINDER": "NPYYGSTSYNQKFKGKATLT (also called Peptide # 29) [NPYYGSTSYNQKFKGKATLT (SEQ. ID. No. 32)]",
    "MEASURED_NUMBER": 0.213
  },
  {
    "BINDER": "TSSYSYMHWYQQKPGQPPKL [TSSYSYMHWYQQKPGQPPKL (SEQ. ID. No. 18)]",
    "MEASURED_NUMBER": 0.574
  },
  {
    "BINDER": "VDKSSSTAYMELTRLTSEDS (also called Peptide # 8) [VDKSSSTAYMELTRLTSEDS (SEQ. ID. No. 11)]",
    "MEASURED_NUMBER": 0.134
  },
  {
    "BINDER": "TFGGGTKLEIKRADAAPAV (also called Peptide # 22) [TFGGGTKLEIKRADAAPAV (SEQ. ID. No. 25)]",
    "MEASURED_NUMBER": 0.084
  },
  {
    "BINDER": "FPGEGSTEYNEKFKGRATLS (also called Peptide # 6) [FPGEGSTEYNEKFKGRATLS (SEQ. ID. No. 9)]",
    "MEASURED_NUMBER": 0.121
  },
  {
    "BINDER": "QKFKGKATLTVDKSSSTAYM (also called Peptide # 30) [QKFKGKATLTVDKSSSTAYM (SEQ. ID. No. 33)]",
    "MEASURED_NUMBER": 0.207
  },
  {
    "BINDER": "SGTDFTLNIHPVEEEDTATY [SGTDFTLNIHPVEEEDTATY (SEQ. ID. No. 22)]",
    "MEASURED_NUMBER": 0.205
  },
  {
    "BINDER": "QQKPGQPPKLLIKYASNLES [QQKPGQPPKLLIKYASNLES (SEQ. ID. No. 19)]",
    "MEASURED_NUMBER": 0.064
  },
  {
    "BINDER": "GKSLEWIGNINPYYGSTSYN (also called Peptide # 28) [GKSLEWIGNINPYYGSTSYN (SEQ. ID. No. 31)]",
    "MEASURED_NUMBER": 0.114
  },
  {
    "BINDER": "YCQHSWEIPYTFGGGTKLEI (also called Peptide # 21) [YCQHSWEIPYTFGGGTKLEI (SEQ. ID. No. 24)]",
    "MEASURED_NUMBER": 0.173
  },
  {
    "BINDER": "LAVSLGQRATISCRASQSVS [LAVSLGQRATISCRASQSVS (SEQ. ID. No. 16)]",
    "MEASURED_NUMBER": 0.807
  },
  {
    "BINDER": "VKLQQSGTEVVKPGASVKLS (also called Peptide # 1) [VKLQQSGTEVVKPGASVKLS (SEQ. ID. No. 4)]",
    "MEASURED_NUMBER": 0.124
  },
  {
    "BINDER": "LIKYASNLESGVPARFSGSG [LIKYASNLESGVPARFSGSG (SEQ. ID. No. 20)]",
    "MEASURED_NUMBER": 0.112
  },
  {
    "BINDER": "KRADAAPAVSIFPPSSKLG (also called Peptide # 23) [KRADAAPAVSIFPPSSKLG (SEQ. ID. No. 26)]",
    "MEASURED_NUMBER": 0.162
  },
  {
    "BINDER": "GVPARFSGSGSGTDFTLNIH [GVPARFSGSGSGTDFTLNIH (SEQ. ID. No. 21)]",
    "MEASURED_NUMBER": 0.141
  },
  {
    "BINDER": "VKPGASVKLSCKASGYIFTS (also called Peptide # 2; Pept. #2) [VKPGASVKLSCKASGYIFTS (SEQ. ID. No. 5)]",
    "MEASURED_NUMBER": 1.15
  },
  {
    "BINDER": "PVEEEDTATYYCQHSWEIPY (also called Peptide # 20) [PVEEEDTATYYCQHSWEIPY (SEQ. ID. No. 23)]",
    "MEASURED_NUMBER": 0.207
  },
  {
    "BINDER": "YNMNWVKQSHGKSLEWIGNI (also called Peptide # 27) [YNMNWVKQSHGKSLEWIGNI (SEQ. ID. No. 30)]",
    "MEASURED_NUMBER": 0.114
  }
]
